Where do these numbers come from? They come from patent US11332459B2.

Target: human TRPC6 (Homo sapiens, UniProt Q9Y210)
Sequence (Q9Y210 1-931): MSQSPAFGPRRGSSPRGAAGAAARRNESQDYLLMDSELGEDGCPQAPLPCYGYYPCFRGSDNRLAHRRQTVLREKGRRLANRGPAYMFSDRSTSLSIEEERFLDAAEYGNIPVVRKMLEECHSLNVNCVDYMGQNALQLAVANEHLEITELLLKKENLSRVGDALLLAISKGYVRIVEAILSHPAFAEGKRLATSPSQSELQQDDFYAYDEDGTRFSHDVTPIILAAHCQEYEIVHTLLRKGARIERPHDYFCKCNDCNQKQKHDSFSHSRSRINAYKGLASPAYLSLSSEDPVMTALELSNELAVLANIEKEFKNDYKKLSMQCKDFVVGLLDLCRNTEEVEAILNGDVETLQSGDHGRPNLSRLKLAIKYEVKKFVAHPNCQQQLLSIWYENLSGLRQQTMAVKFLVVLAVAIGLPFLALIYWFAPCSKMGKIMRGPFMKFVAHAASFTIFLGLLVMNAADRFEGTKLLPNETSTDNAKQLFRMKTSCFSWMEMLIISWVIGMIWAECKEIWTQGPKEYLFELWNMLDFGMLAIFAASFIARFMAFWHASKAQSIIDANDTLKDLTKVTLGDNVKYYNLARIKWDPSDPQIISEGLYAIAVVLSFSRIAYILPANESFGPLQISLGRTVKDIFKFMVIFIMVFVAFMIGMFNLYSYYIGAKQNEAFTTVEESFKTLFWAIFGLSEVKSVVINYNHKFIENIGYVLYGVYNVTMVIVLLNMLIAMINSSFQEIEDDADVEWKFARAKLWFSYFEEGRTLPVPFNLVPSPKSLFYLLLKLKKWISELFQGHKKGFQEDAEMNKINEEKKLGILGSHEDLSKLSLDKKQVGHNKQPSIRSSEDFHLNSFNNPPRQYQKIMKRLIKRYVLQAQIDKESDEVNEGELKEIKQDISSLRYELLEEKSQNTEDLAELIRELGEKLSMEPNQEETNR
Test: TRPC6 calcium flux assay (FLIPR, OAG-stimulated calcium influx)
Conditions: HEK293 cells stably transfected with human TRPC6, read-out: hTRPC6 Potency
This listing pairs molecules with measured pIC50.
Note on units: pIC50 is unitless, being -log10 of a concentration expressed in mol/L.

                                   molecule                        experimentalsystem  readoutkind  valueobserved
0  N[C@@H]1CN(c2nc3ccc(C(F)(F)F)cc3n2CC(=O)N2CCOCC2)CC[C@@H]1F [Example 464]  human TRPC6 (Homo sapiens, UniProt Q9Y210)        pIC50           7.20
1  N[C@@H]1CN(c2nc3ccc(C(F)(F)F)cc3n2Cc2ncc(F)cn2)CC[C@@H]1F [Example 305]  human TRPC6 (Homo sapiens, UniProt Q9Y210)        pIC50           9.54

Now look at this one.
Query block: Consider the molecule N#Cc1cnc(Cn2c(N3CCC(F)(F)[C@H](N)C3)nc3ccccc32)cn1 [Example 199] and give its recorded pIC50.
Result block: 7.55

###

Target: UniProt:Q9Y210
Sequence (Q9Y210 1-931): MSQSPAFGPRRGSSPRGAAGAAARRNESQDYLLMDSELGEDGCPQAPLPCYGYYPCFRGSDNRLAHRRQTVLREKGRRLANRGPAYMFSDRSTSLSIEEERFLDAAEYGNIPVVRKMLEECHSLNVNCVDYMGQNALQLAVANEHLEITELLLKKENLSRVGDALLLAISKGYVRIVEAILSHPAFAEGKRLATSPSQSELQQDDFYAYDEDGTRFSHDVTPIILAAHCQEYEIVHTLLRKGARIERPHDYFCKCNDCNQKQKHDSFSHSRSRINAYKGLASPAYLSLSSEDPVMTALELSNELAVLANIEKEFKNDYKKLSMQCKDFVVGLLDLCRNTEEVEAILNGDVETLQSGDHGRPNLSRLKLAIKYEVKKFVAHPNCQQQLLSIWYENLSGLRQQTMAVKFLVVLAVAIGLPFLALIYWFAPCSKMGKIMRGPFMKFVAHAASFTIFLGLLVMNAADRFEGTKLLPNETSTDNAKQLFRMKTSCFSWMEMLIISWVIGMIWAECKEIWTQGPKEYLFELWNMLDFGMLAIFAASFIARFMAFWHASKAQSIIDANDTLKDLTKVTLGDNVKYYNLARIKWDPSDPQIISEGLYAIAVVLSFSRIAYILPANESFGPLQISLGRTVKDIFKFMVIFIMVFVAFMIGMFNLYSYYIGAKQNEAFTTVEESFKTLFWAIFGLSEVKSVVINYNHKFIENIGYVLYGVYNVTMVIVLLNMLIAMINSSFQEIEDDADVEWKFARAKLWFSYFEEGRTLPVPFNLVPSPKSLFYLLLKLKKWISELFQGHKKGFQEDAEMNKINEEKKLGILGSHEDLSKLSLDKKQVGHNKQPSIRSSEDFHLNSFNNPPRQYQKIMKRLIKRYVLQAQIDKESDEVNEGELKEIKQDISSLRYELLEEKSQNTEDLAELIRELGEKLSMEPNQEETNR
Assay: TRPC6 calcium flux assay (FLIPR, OAG-stimulated calcium influx)
Conditions: HEK293 cells stably transfected with human TRPC6, read-out: hTRPC6 Potency
Method: Biological Example 1 TRPC6 Calcium Flux Assay Potency of TRPC6 (Transient receptor potential channel family C6) inhibitors were measured by their inhibition of Calcium influx trigged by […] (1-Oleoyl-2-acetyl-sn-glycerol, Millipore Sigma, O6754) stimulation on HEK293 cells stablely transfected with human TRPC6 using a FLIPR tetra system. […]
Where a name gives a salt, the structure may show the parent alone.
readoutKind: IC50 (nM)
Field format: number, assumed nM, no unit text.

Completed entries (count: 3):
>>> print(df.to_string())
                                   molecule  valueobserved
0  N[C@@H]1CN(c2nc3ccc(F)cc3n2CC(=O)N(CC(F)(F)F)C2CC2)CC[C@H]1F            283
1  C[C@H](c1ccc(C#N)cn1)n1c(N2CC[C@@H](F)[C@H](N)C2)nc2ccccc21 [Example 297, hydrochloride]           78.5
2  N[C@@H]1CN(c2nc3ccccc3n2Cc2ncc(Cl)cn2)CC[C@H]1F          0.664

Now look at this one.
Query block: Output reported IC50 of the molecule "N[C@@H]1CN(c2nc3cc(F)c(F)cc3n2[C@H]2CCN(C3CC3)C2=O)CC[C@H]1F" on UniProt:Q9Y210.
Result block: 410

###

Molecular target: human TRPC6 (Homo sapiens)
Assay: TRPC6 calcium flux assay (FLIPR, OAG-stimulated calcium influx)
Details: HEK293 cells stably transfected with human TRPC6, read-out: hTRPC6 Potency
Where a name gives a salt, the structure may show the parent alone.
This listing pairs molecules with measured IC50.
Field format: number, assumed nM, no unit text.

Completed entries (count: 6):
>>> print(df.to_string())
                                   molecule  readoutkind  valueobserved
0  N[C@@H]1CN(c2nc3ccc(Cl)cc3n2CC(=O)N2CCC2)CC[C@H]1F [Example 285]         IC50            185
1  CCN(CC(C)C#N)C(=O)Cn1c(N2CC[C@@H](F)[C@H](N)C2)nc2cc(F)c(F)cc21 (mixture of isomers) [Example 237]         IC50            223
2  N[C@@H]1CN(c2nc3cc(F)c(F)cc3n2[C@H]2CCN(c3ccc(Cl)cc3)C2=O)CC[C@H]1F [Example 247]         IC50           75.4
3  C[C@@H]1CCN(c2nc3ccccc3n2Cc2ccc(C#N)cc2)C[C@H]1N [Example 181, 2,2,2-trifluoroacetate]         IC50          0.907
4  N[C@@H]1CN(c2nc3cc(F)c(F)cc3n2Cc2cc(Cl)ccc2Cl)CC[C@H]1F [Example 343]         IC50            804
5  C[C@H](c1ccc(Cl)cn1)n1c(N2CC[C@@H](F)[C@H](N)C2)nc2ccc(Cl)cc21 [Example 221, hydrochloride]         IC50           54.9

Now look at this one.
Query block: Consider the molecule N#Cc1ccc(Cn2c(N3CC[C@@H](F)[C@H](N)C3)nc3cc(OC(F)(F)F)c(Cl)cc32)nc1 [Example 124] and give its recorded IC50.
Result block: 0.741

###

This listing pairs compounds with measured pIC50.
Target: human TRPC6 (Homo sapiens)
Experiment: TRPC6 calcium flux assay (FLIPR, OAG-stimulated calcium influx)
Details: HEK293 cells stably transfected with human TRPC6, read-out: hTRPC6 Potency
Structures can show the parent of a compound that is named as a salt.
Note on units: pIC50 is unitless, being -log10 of a concentration expressed in mol/L.

                                   compound  valueobserved
0  N#Cc1ccc(Cn2c(N3CCC(F)(F)[C@H](N)C3)nc3c(C(F)(F)F)cccc32)nc1           6.43
1  N#Cc1ccc(Cn2c(N3CC[C@](F)(CN)C3)nc3ccccc32)cc1 [Example 175, 2,2,2-trifluoroacetate]           5.77
2  N[C@@H]1CN(c2nc3ccc(Br)cc3n2CC(=O)N2CCC2)CC[C@H]1F           8.18
3  N[C@H]1CCCN(c2nc3ccccc3n2Cc2ccc(F)cc2)C1           7.00
4  N#Cc1ccc(Cn2c(N3CC[C@@H](F)[C@H](N)C3)nc3ccc(Cl)cc32)nc1           9.40
5  NC(=O)c1cnc(Cn2c(N3CC[C@@H](F)[C@H](N)C3)nc3cc(F)c(F)cc32)cn1           8.16
6  C[C@@H](c1ccc(C#N)cn1)n1c(N2CC[C@@H]3OCCN[C@H]3C2)nc2cc(F)cc(F)c21           7.86
7  C[C@H](c1ccccn1)N(C)C(=O)Cn1c(N2CC[C@@H](F)[C@H](N)C2)nc2cc(F)c(F)cc21           8.11

Query block: Consider the compound "CN(C(=O)Cn1c(N2CC[C@@H](F)[C@H](N)C2)nc2ccc(F)cc21)[C@@H]1CCOC1" and give its recorded pIC50.
Result block: 6.23

Query block: Consider the compound N[C@@H]1CN(c2nc3cc(F)ccc3n2Cc2ncc(Cl)cn2)CC[C@H]1O [Example 494] and give its recorded pIC50.
Result block: 7.90

Query block: Consider the compound CN(CC(F)(F)F)C(=O)Cn1c(N2CC[C@@H](F)[C@H](N)C2)nc2ccc(F)cc21 [Example 445] and give its recorded pIC50.
Result block: 7.68

Query block: Consider the compound N#Cc1ccc(Cn2c(N3CCC[C@H](N)C3)nc3ccccc32)c(Cl)c1 [Example 321, hydrochloride] and give its recorded pIC50.
Result block: 8.39

Query block: Consider the compound "N[C@@H]1CN(c2nc3ccc(F)cc3n2Cc2ncc(Cl)cn2)CC[C@H]1F" and give its recorded pIC50.
Result block: 7.13
